- method.summary: Pharmacokinetic analysis, serum level after corylin oral gavage
- Assay type: in vivo, mouse
- conditions: male, C57BL/6J, mouse, serum; mice, 12 hours after oral gavage
value.kind: concentration at 12 h

> print(dat)
                            chemical.string  observed.result
1  CC1(C)C=Cc2cc(-c3coc4cc(O)ccc4c3=O)ccc2O1           390 nM

====

- method.summary: Pharmacokinetic analysis, serum level after corylin oral gavage
- Assay type: in vivo, mouse
- conditions: male, C57BL/6J, mouse, serum; mice, 3 hours after oral gavage
value.kind: concentration at 3 h (nM)

> print(dat)
                            chemical.string            value.kind  unit.abbreviation  observed.result
1  CC1(C)C=Cc2cc(-c3coc4cc(O)ccc4c3=O)ccc2O1  concentration at 3 h                 nM              500

====

- method.summary: Pharmacokinetic analysis, serum level after corylin oral gavage
- Type: in vivo, mouse
- conditions: male, C57BL/6J, mouse, serum; mice, 9 hours after oral gavage
value.kind: concentration at 9 h (nM)

> print(dat)
                                   compound  unit.abbreviation  observed.result
1  CC1(C)C=Cc2cc(-c3coc4cc(O)ccc4c3=O)ccc2O1 [corylin]                 nM              540

====

- method.summary: Pharmacokinetic analysis, serum level after corylin oral gavage
- Assay type: in vivo, mouse
- conditions: male, C57BL/6J, mouse, serum; mice, 6 hours after oral gavage
value.kind: concentration at 6 h (nM)

> print(dat)
                                   compound  observed.result
1  CC1(C)C=Cc2cc(-c3coc4cc(O)ccc4c3=O)ccc2O1 [corylin]              490

====

- method.summary: Pharmacokinetic analysis, serum level after corylin oral gavage
- Format: in vivo, mouse
- conditions: male, C57BL/6J, mouse, serum; mice, 15 hours after oral gavage
value.kind: concentration at 15 h (nM)

> print(dat)
                            chemical.string             value.kind  observed.result
1  CC1(C)C=Cc2cc(-c3coc4cc(O)ccc4c3=O)ccc2O1  concentration at 15 h              260

These measurements were taken from patent US20240091191A1.
